target: HLA-A*02:01 (Homo sapiens, UniProt P04439, D140Y/D185E/D98H/E176V/E277Q/G131W/G231S/I119V/I121R/I166T/I218V/L300P/L318F/N151K/N90K/P208A/P217A/Q86G/Q94H/R138H/R169H/T345S); assay: MHC binding assay: UV-ligand exchange with beta2m ELISA (peptide exchange yield); details: binding to HLA-A*02:01
Experimental Endpoint: Peptide exchange (MHC class I binding score, peptide exchange yield)

Solved entries (count: 5):
> print(dat)
                                  substance     recorded.value
1  158 (KLFDVDEDGYI; listed as Homo sapiens) [compound 158]  “+++” (≥50 = +++)
2  38 (FLLEDDIHVS; listed as Homo sapiens) [compound 38]  “+++” (≥50 = +++)
3  42 (VLLQKIVSA; listed as Homo sapiens) [compound 42]  “+++” (≥50 = +++)
4  83 (ILAPTVMMI; listed as Homo sapiens) [compound 83]  “+++” (≥50 = +++)
5  282 (LLADVVPTT; listed as Homo sapiens) [compound 282]  “+++” (≥50 = +++)

I'd like to know its Peptide exchange (MHC class I binding score, peptide exchange yield). The substance in question is 408 (VLDDSIYLV; listed as Homo sapiens) [compound 408]
“++” (≥20% = ++)

I'd like to know its Peptide exchange (MHC class I binding score, peptide exchange yield). The substance in question is 227 (ALMNTLLYL; listed as Homo sapiens) [compound 227]
“++” (≥20% = ++)

I'd like to know its Peptide exchange (MHC class I binding score, peptide exchange yield). The substance in question is 474 (YLDPALELGPRNV; listed as Homo sapiens) [compound 474]
“+++” (≥50 = +++)

I'd like to know its Peptide exchange (MHC class I binding score, peptide exchange yield). The substance in question is 451 (LLLLDTVTMQV; listed as Homo sapiens) [compound 451]
“++” (≥20% = ++)

I'd like to know its Peptide exchange (MHC class I binding score, peptide exchange yield). The substance in question is 101 (ILVGGGALATV; listed as Homo sapiens) [compound 101]
“+++” (≥50 = +++)

###

target: HLA-A*02:01 (Homo sapiens, UniProt P04439, D140Y/D185E/D98H/E176V/E277Q/G131W/G231S/I119V/I121R/I166T/I218V/L300P/L318F/N151K/N90K/P208A/P217A/Q86G/Q94H/R138H/R169H/T345S); assay: MHC binding assay: UV-ligand exchange with beta2m ELISA (peptide exchange yield); conditions: binding to HLA-A*02:01
Experimental Endpoint: Peptide exchange (MHC class I binding score, peptide exchange yield)

> print(dat)
                                  substance     recorded.value
1  350 (ALLDVTHSELTV; listed as Homo sapiens) [compound 350]  “+++” (≥50 = +++)
2  622 (RLLGEEVVRVLQA; listed as Homo sapiens) [compound 622]  “+++” (≥50 = +++)
3  379 (IMEGTLTRV; listed as Homo sapiens) [compound 379]   “++” (≥20% = ++)
4  155 (RVANLHFPSV; listed as Homo sapiens) [compound 155]  “+++” (≥50 = +++)
5  73 (NIFDLQIYV; listed as Homo sapiens) [compound 73]  “+++” (≥50 = +++)
6  615 (VLPPDTDPA; listed as Homo sapiens) [compound 615]   “++” (≥20% = ++)
7  152 (ILFEDIFDV; listed as Homo sapiens) [compound 152]  “+++” (≥50 = +++)
8  526 (RLAEVGQYEQV; listed as Homo sapiens) [compound 526]   “++” (≥20% = ++)

For the next question, use this substance.
I'd like to know its Peptide exchange (MHC class I binding score, peptide exchange yield). The substance in question is 280 (VLPDPEVLEAV; listed as Homo sapiens) [compound 280]
“+++” (≥50 = +++)

###

molecular target: HLA-A*02:01 (Homo sapiens, UniProt P04439, D140Y/D185E/D98H/E176V/E277Q/G131W/G231S/I119V/I121R/I166T/I218V/L300P/L318F/N151K/N90K/P208A/P217A/Q86G/Q94H/R138H/R169H/T345S); assay: MHC binding assay: UV-ligand exchange with beta2m ELISA (peptide exchange yield); conditions: binding to HLA-A*02:01
Experimental Endpoint: Peptide exchange (MHC class I binding score, peptide exchange yield)

> print(dat)
                                  substance        recorded.value
1  53 (KMIETDILQKV; listed as Homo sapiens) [compound 53]  “++++” (≥75% = ++++)
2  529 (LLADELITV; listed as Homo sapiens) [compound 529]     “+++” (≥50 = +++)
3  432 (TLIEESAKV; listed as Homo sapiens) [compound 432]      “++” (≥20% = ++)
4  250 (ALSEEGLLVYL; listed as Homo sapiens) [compound 250]     “+++” (≥50 = +++)
5  90 (TLLQIIETV; listed as Homo sapiens) [compound 90]     “+++” (≥50 = +++)

I'd like to know its Peptide exchange (MHC class I binding score, peptide exchange yield). The substance in question is 602 (YLLEQIKLIEV; listed as Homo sapiens) [compound 602]
“++++” (≥75% = ++++)

I'd like to know its Peptide exchange (MHC class I binding score, peptide exchange yield). The substance in question is 231 (FLSPQQPPLLL; listed as Homo sapiens) [compound 231]
“++” (≥20% = ++)

I'd like to know its Peptide exchange (MHC class I binding score, peptide exchange yield). The substance in question is 93 (LLQAIKLYL; listed as Homo sapiens) [compound 93]
“++” (≥20% = ++)

I'd like to know its Peptide exchange (MHC class I binding score, peptide exchange yield). The substance in question is 115 (AIAGAGILYGV; listed as Homo sapiens) [compound 115]
“++” (≥20% = ++)

I'd like to know its Peptide exchange (MHC class I binding score, peptide exchange yield). The substance in question is 118 (KLIDNNINV; listed as Homo sapiens) [compound 118]
“+++” (≥50 = +++)

I'd like to know its Peptide exchange (MHC class I binding score, peptide exchange yield). The substance in question is 246 (LLWEVVSQL; listed as Homo sapiens) [compound 246]
“+++” (≥50 = +++)

###

molecular target: HLA-A*02:01 (Homo sapiens, UniProt P04439, D140Y/D185E/D98H/E176V/E277Q/G131W/G231S/I119V/I121R/I166T/I218V/L300P/L318F/N151K/N90K/P208A/P217A/Q86G/Q94H/R138H/R169H/T345S); experiment: MHC binding assay: UV-ligand exchange with beta2m ELISA (peptide exchange yield); conditions: binding to HLA-A*02:01
Experimental Endpoint: Peptide exchange (MHC class I binding score, peptide exchange yield)

Solved entries (count: 5):
> print(dat)
                                  substance     recorded.value
1  447 (QLVPALAKV; listed as Homo sapiens) [compound 447]   “++” (≥20% = ++)
2  623 (YLVEDIQHI; listed as Homo sapiens) [compound 623]  “+++” (≥50 = +++)
3  436 (HLAEVSAEV; listed as Homo sapiens) [compound 436]  “+++” (≥50 = +++)
4  604 (SILDRDDIFV; listed as Homo sapiens) [compound 604]  “+++” (≥50 = +++)
5  175 (YLFENISQL; listed as Homo sapiens) [compound 175]  “+++” (≥50 = +++)

I'd like to know its Peptide exchange (MHC class I binding score, peptide exchange yield). The substance in question is 146 (SLATAGDGLIEL; listed as Homo sapiens) [compound 146]
“++” (≥20% = ++)

I'd like to know its Peptide exchange (MHC class I binding score, peptide exchange yield). The substance in question is 72 (SLLELDGINL; listed as Homo sapiens) [compound 72]
“+++” (≥50 = +++)

I'd like to know its Peptide exchange (MHC class I binding score, peptide exchange yield). The substance in question is 147 (SLLEAVSFL; listed as Homo sapiens) [compound 147]
“+++” (≥50 = +++)

I'd like to know its Peptide exchange (MHC class I binding score, peptide exchange yield). The substance in question is 97 (SLINGSFLV; listed as Homo sapiens) [compound 97]
“+++” (≥50 = +++)

###

target: HLA-A*02:01 (Homo sapiens, UniProt P04439, D140Y/D185E/D98H/E176V/E277Q/G131W/G231S/I119V/I121R/I166T/I218V/L300P/L318F/N151K/N90K/P208A/P217A/Q86G/Q94H/R138H/R169H/T345S); test: MHC binding assay: UV-ligand exchange with beta2m ELISA (peptide exchange yield); settings: binding to HLA-A*02:01
Experimental Endpoint: Peptide exchange (MHC class I binding score, peptide exchange yield)

> print(dat)
                                  substance        recorded.value
1  125 (VQIHQVAQV; listed as Homo sapiens) [compound 125]     “+++” (≥50 = +++)
2  67 (TLLAEALVTV; listed as Homo sapiens) [compound 67]     “+++” (≥50 = +++)
3  138 (YQYPRAILSV; listed as Homo sapiens) [compound 138]     “+++” (≥50 = +++)
4  232 (ALLEAQDVELYL; listed as Homo sapiens) [compound 232]      “++” (≥20% = ++)
5  234 (ALMEDTGRQML; listed as Homo sapiens) [compound 234]      “++” (≥20% = ++)
6  109 (IILSILEQA; listed as Homo sapiens) [compound 109]  “++++” (≥75% = ++++)

I'd like to know its Peptide exchange (MHC class I binding score, peptide exchange yield). The substance in question is 240 (ILLEQAFYL; listed as Homo sapiens) [compound 240]
“+++” (≥50 = +++)

I'd like to know its Peptide exchange (MHC class I binding score, peptide exchange yield). The substance in question is 428 (KLGHTDILVGV; listed as Homo sapiens) [compound 428]
“++” (≥20% = ++)

I'd like to know its Peptide exchange (MHC class I binding score, peptide exchange yield). The substance in question is 87 (ALPEAPAPLLPHIT; listed as Homo sapiens) [compound 87]
“++” (≥20% = ++)

I'd like to know its Peptide exchange (MHC class I binding score, peptide exchange yield). The substance in question is 207 (GLTSTNAEV; listed as Homo sapiens) [compound 207]
“++” (≥20% = ++)

I'd like to know its Peptide exchange (MHC class I binding score, peptide exchange yield). The substance in question is 349 (SLTEYLQNV; listed as Homo sapiens) [compound 349]
“++++” (≥75% = ++++)

I'd like to know its Peptide exchange (MHC class I binding score, peptide exchange yield). The substance in question is 206 (VLQEGKLQKLAQL; listed as Homo sapiens) [compound 206]
“+++” (≥50 = +++)

I'd like to know its Peptide exchange (MHC class I binding score, peptide exchange yield). The substance in question is 389 (LLADVTHLL; listed as Homo sapiens) [compound 389]
“++” (≥20% = ++)
